experiment-summary: Stability of lyophilized amorphous BMY-28142 salts (dry, sealed vials)
Type: physicochemical
experimental-parameters: dry lyophilized solid, 2 weeks, 56° C.; second lot, separately prepared
Where a name gives a salt, the structure may show the parent alone.
endpoint-label: remaining at 336 h (%)
One number for each entry, in %.

Problem: Note down remaining at 336 h recorded for CO/N=C(\C(=O)NC1C(=O)N2C(C(=O)[O-])=C(C[N+]3(C)CCCC3)CSC12)c1csc(N)n1 (stereo not shown) [Di-HCl]
Result: 91.8

###

experiment-summary: Stability of lyophilized amorphous BMY-28142 salts (dry, sealed vials)
Assay type: physicochemical
experimental-parameters: dry lyophilized solid, 4 weeks, 37° C.
Where a name gives a salt, the structure may show the parent alone.
endpoint-label: remaining at 672 h (%)
Numbers only, in %.

Problem: Note down remaining at 672 h recorded for CO/N=C(\C(=O)NC1C(=O)N2C(C(=O)[O-])=C(C[N+]3(C)CCCC3)CSC12)c1csc(N)n1 (stereo not shown) [Di-HCl]
Result: 98.6

###

experiment-summary: Stability of lyophilized amorphous BMY-28142 salts (dry, sealed vials)
Type: physicochemical
experimental-parameters: dry lyophilized solid, 6 months, 25° C.; second lot, separately prepared
Procedure: […] of BMY-28142 Zi was dissolved qs to 33 ml with 1.9 ml of 1N-HCl and water for injection (pH=2.0). One ml portion (approximately 65 mg/ml) of the solution were placed into 10cc flint vials which were loosely stoppered with split lyphlization stoppers, frozen to -40° C. and lyphilized at a shelf temperature of 0° C. for 24 hours, then at 24° C. for 24 hours and at 32.2° C. for four hours. The vials were then sealed with aluminum closures and tested for stability at 56°, 45° and 37° C.
Counter-ions that a name gives are not always drawn.
endpoint-label: remaining at 4320 h (%)
Numbers only, in %.

Problem: Note down remaining at 4320 h recorded for CO/N=C(\C(=O)NC1C(=O)N2C(C(=O)[O-])=C(C[N+]3(C)CCCC3)CSC12)c1csc(N)n1 (stereo not shown) [Di-HCl]
Result: 100

###

experiment-summary: Stability of lyophilized amorphous BMY-28142 salts (dry, sealed vials)
Type: physicochemical
experimental-parameters: dry lyophilized solid, 41 weeks, 25° C.
Structures can show the parent of a compound that is named as a salt.
endpoint-label: remaining at 6888 h (%)
One number for each entry, in %.

Problem: Note down remaining at 6888 h recorded for CO/N=C(\C(=O)NC1C(=O)N2C(C(=O)[O-])=C(C[N+]3(C)CCCC3)CSC12)c1csc(N)n1 (stereo not shown) [Di-HCl]
Result: 98.1

###

experiment-summary: Stability of lyophilized amorphous BMY-28142 salts (dry, sealed vials)
Assay type: physicochemical
experimental-parameters: dry lyophilized solid, 1 week, 56° C.
endpoint-label: remaining at 168 h (%)
Answers are plain numbers, in %.

Problem: Note down remaining at 168 h recorded for CO/N=C(\C(=O)NC1C(=O)N2C(C(=O)[O-])=C(C[N+]3(C)CCCC3)CSC12)c1csc(N)n1 (stereo not shown)
Result: 75

###

experiment-summary: Stability of lyophilized amorphous BMY-28142 salts (dry, sealed vials)
Format: physicochemical
experimental-parameters: dry lyophilized solid, 41 weeks, 37° C.
Where a name gives a salt, the structure may show the parent alone.
endpoint-label: remaining at 6888 h (%)
Answers are plain numbers, in %.

Problem: Note down remaining at 6888 h recorded for CO/N=C(\C(=O)NC1C(=O)N2C(C(=O)[O-])=C(C[N+]3(C)CCCC3)CSC12)c1csc(N)n1 (stereo not shown) [Di-HCl]
Result: 91.7

###

experiment-summary: Stability of lyophilized amorphous BMY-28142 salts (dry, sealed vials)
Type: physicochemical
experimental-parameters: dry lyophilized solid, 1 week, 45° C.
Experimental: […] of BMY-28142 Zi was dissolved qs to 33 ml with 1.9 ml of 1N-HCl and water for injection (pH=2.0). One ml portion (approximately 65 mg/ml) of the solution were placed into 10cc flint vials which were loosely stoppered with split lyphlization stoppers, frozen to -40° C. and lyphilized at a shelf temperature of 0° C. for 24 hours, then at 24° C. for 24 hours and at 32.2° C. for four hours. The vials were then sealed with aluminum closures and tested for stability at 56°, 45° and 37° C.
Structures can show the parent of a compound that is named as a salt.
endpoint-label: remaining at 168 h (%)
Give bare numbers, in %.

Problem: Note down remaining at 168 h recorded for CO/N=C(\C(=O)NC1C(=O)N2C(C(=O)[O-])=C(C[N+]3(C)CCCC3)CSC12)c1csc(N)n1 (stereo not shown) [Di-HCl]
Result: 99.8

###

experiment-summary: Stability of lyophilized amorphous BMY-28142 salts (dry, sealed vials)
Format: physicochemical
experimental-parameters: dry lyophilized solid, 8 weeks, 56° C.
Where a name gives a salt, the structure may show the parent alone.
endpoint-label: remaining at 1344 h (%)
One number for each entry, in %.

Problem: Note down remaining at 1344 h recorded for CO/N=C(\C(=O)NC1C(=O)N2C(C(=O)[O-])=C(C[N+]3(C)CCCC3)CSC12)c1csc(N)n1 (stereo not shown) [Di-HCl]
Result: 87

###

experiment-summary: Stability of lyophilized amorphous BMY-28142 salts (dry, sealed vials)
Assay type: physicochemical
experimental-parameters: dry lyophilized solid, 52 weeks, 25° C.; second lot, separately prepared
Structures can show the parent of a compound that is named as a salt.
endpoint-label: remaining at 8736 h
Returns: string containing the numeric result and its unit.

Problem: Note down remaining at 8736 h recorded for CO/N=C(\C(=O)NC1C(=O)N2C(C(=O)[O-])=C(C[N+]3(C)CCCC3)CSC12)c1csc(N)n1 (stereo not shown) [Di-HCl]
Result: 100%

###

experiment-summary: Stability of lyophilized amorphous BMY-28142 salts (dry, sealed vials)
Format: physicochemical
experimental-parameters: dry lyophilized solid, 4 weeks, 45° C.; second lot, separately prepared
Counter-ions that a name gives are not always drawn.
endpoint-label: remaining at 672 h (%)
Answers are plain numbers, in %.

Problem: Note down remaining at 672 h recorded for CO/N=C(\C(=O)NC1C(=O)N2C(C(=O)[O-])=C(C[N+]3(C)CCCC3)CSC12)c1csc(N)n1 (stereo not shown) [Di-HCl]
Result: 92.5

###

experiment-summary: Stability of lyophilized amorphous BMY-28142 salts (dry, sealed vials)
Type: physicochemical
experimental-parameters: dry lyophilized solid, 2 weeks, 45° C.
Where a name gives a salt, the structure may show the parent alone.
endpoint-label: remaining at 336 h (%)
Numbers only, in %.

Problem: Note down remaining at 336 h recorded for CO/N=C(\C(=O)NC1C(=O)N2C(C(=O)[O-])=C(C[N+]3(C)CCCC3)CSC12)c1csc(N)n1 (stereo not shown) [Di-HCl]
Result: 97.2

###

experiment-summary: Stability of lyophilized amorphous BMY-28142 salts (dry, sealed vials)
Format: physicochemical
experimental-parameters: dry lyophilized solid, 26 weeks, 45° C.
Where a name gives a salt, the structure may show the parent alone.
endpoint-label: remaining at 4368 h (%)
Give bare numbers, in %.

Problem: Note down remaining at 4368 h recorded for CO/N=C(\C(=O)NC1C(=O)N2C(C(=O)[O-])=C(C[N+]3(C)CCCC3)CSC12)c1csc(N)n1 (stereo not shown) [Di-HCl]
Result: 87.7

###

experiment-summary: Stability of lyophilized amorphous BMY-28142 salts (dry, sealed vials)
Type: physicochemical
experimental-parameters: dry lyophilized solid, 6 weeks, 37° C.
endpoint-label: remaining at 1008 h (%)
Give bare numbers, in %.

Problem: Note down remaining at 1008 h recorded for CO/N=C(\C(=O)NC1C(=O)N2C(C(=O)[O-])=C(C[N+]3(C)CCCC3)CSC12)c1csc(N)n1 (stereo not shown)
Result: 79

This collection of values is drawn from patent US5095011A.
